FYI, the data here is from ChEMBL document CHEMBL3421570.

- Tested on: Staphylococcus aureus
- test method notes: Antimicrobial activity against Staphylococcus aureus assessed as inhibition of microbial growth at 45 uM after 24 hrs
- Assay type: functional, organism-based
Active and inactive are the calls of the source. The calls are words filed in the database; no cut-off is given here.
Use one of these outcomes when replying: Yes = active, No = inactive

[[record]]
structure_string = "CCCCCCCN1C(=N)N(CCCC[C@H]2CNC(=N)N2CCC23C[C@H]4C[C@@H](C2)C[C@@H](C3)C4)C[C@@H]1CCCC"
label_class = "Yes"


Exercise: Would you mind telling me which call this test gave CCCC[C@H]1CN(CCCC[C@H]2CNC(=N)N2CCc2cccc(C(F)(F)F)c2)C(=N)N1CCc1ccc(-c2ccccc2)cc1 ?
Key: Yes

Exercise: Would you mind telling me which call this test gave CCCCCCCN1C(=N)N(CCCC[C@H]2CNC(=N)N2CCc2cccc(C(F)(F)F)c2)C[C@@H]1CC1CCCCC1 ?
Key: Yes

Exercise: Would you mind telling me which call this test gave N=C1NC[C@H](CCCCN2C[C@H](CC3CCCCC3)N(CCc3ccc(-c4ccccc4)cc3)C2=N)N1CCc1cccc(C(F)(F)F)c1 ?
Key: Yes

* * *

- System: Pseudomonas aeruginosa
- test method notes: Antimicrobial activity against Pseudomonas aeruginosa assessed as inhibition of microbial growth after 24 hrs
- Assay type: functional
Calls of active or inactive are those of the source. The rule behind the calls is not given here.
attribute measured: MIC

Consider the following illustrative entries.
[[record]]
compound = "CC[C@H](C)[C@H]1CN(CCCC[C@H]2CNC(=N)N2CC2CCCCC2)C(=N)N1CCc1cccc(C)c1"
recorded_value = "inactive"

[[record]]
compound = "CCC(C)CN1CCN(CCCC[C@H]2CNC(=N)N2CC2CCC(C)CC2)C1=N (stereo partly specified)"
recorded_value = "inactive"

[[record]]
compound = "CCC[C@@H]1CN(CCCC[C@H]2CNC(=N)N2CC2CCCCC2)C(=N)N1CCc1cccc(C)c1"
recorded_value = "inactive"

[[record]]
compound = "CCCCCCCN1C(=N)NC[C@@H]1CCCCN1C[C@@H](CCC)NC1=N"
recorded_value = "inactive"

[[record]]
compound = "CCC(C)CN1CCN(CCCC[C@H]2CNC(=N)N2CC2CCCCC2)C1=N (stereo partly specified)"
recorded_value = "inactive"


Exercise: # get_value(readout='MIC', item= CCCCCCCN1C(=N)NC[C@@H]1CCCCN1C[C@H]([C@@H](C)CC)NC1=N )
Key: inactive

Exercise: # get_value(readout='MIC', item= Cc1cccc(CCN2CCN(CCCC[C@H]3CNC(=N)N3CC3CCCCC3)C2=N)c1 )
Key: inactive

* * *

- System: Enterococcus faecium
- test method notes: Antimicrobial activity against Enterococcus faecium assessed as inhibition of microbial growth at 45 uM after 24 hrs
- Assay type: functional, organism-based
Activity calls are given as the source filed them. No cut-off for these calls is given here.
Use one of these outcomes when replying: 1 = active, -1 = inactive

[[record]]
structure_string = "CCCCCCCN1C(=N)N(CCCC[C@H]2CNC(=N)N2CCc2cccc(C(F)(F)F)c2)C[C@@H]1CC1CCCCC1"
label_class = 1

[[record]]
structure_string = "N=C1NC[C@H](CCCCN2C[C@@H](Cc3cccc4ccccc34)N(CCCCC3CCCCC3)C2=N)N1CCC12CC3CC(CC(C3)C1)C2"
label_class = -1

[[record]]
structure_string = "CCCCCCCN1C(=N)N(CCCC[C@H]2CNC(=N)N2CCC23C[C@H]4C[C@@H](C2)C[C@@H](C3)C4)C[C@@H]1CCCC"
label_class = 1

[[record]]
structure_string = "CCCC[C@H]1CN(CCCC[C@H]2CNC(=N)N2CCC23CC4CC(CC(C4)C2)C3)C(=N)N1CCc1ccc(-c2ccccc2)cc1"
label_class = 1

[[record]]
structure_string = "N=C1NC[C@H](CCCCN2C[C@@H](Cc3cccc4ccccc34)N(CCc3ccc(-c4ccccc4)cc3)C2=N)N1CCC12CC3CC(CC(C3)C1)C2"
label_class = -1

[[record]]
structure_string = "N=C1NC[C@H](CCCCN2C[C@@H](Cc3cccc4ccccc34)N(CCCCC3CCCCC3)C2=N)N1CCc1cccc(C(F)(F)F)c1"
label_class = 1

[[record]]
structure_string = "N=C1NC[C@H](CCCCN2C[C@@H](Cc3cccc4ccccc34)N(CCc3ccc(-c4ccccc4)cc3)C2=N)N1CCCCC1CCCCC1"
label_class = 1

[[record]]
structure_string = "N=C1NC[C@H](CCCCN2C[C@H](CC3CCCCC3)N(CCc3ccc(-c4ccccc4)cc3)C2=N)N1CCCCC1CCCCC1"
label_class = 1

[[record]]
structure_string = "CCCC[C@H]1CN(CCCC[C@H]2CNC(=N)N2CCC23CC4CC(CC(C4)C2)C3)C(=N)N1CCCCC1CCCCC1"
label_class = 1

[[record]]
structure_string = "CCCCCCCN1C(=N)N(CCCC[C@H]2CNC(=N)N2CCCCC2CCCCC2)C[C@@H]1CC1CCCCC1"
label_class = 1


Exercise: Would you mind telling me which call this test gave CCCC[C@H]1CN(CCCC[C@H]2CNC(=N)N2CCc2cccc(C(F)(F)F)c2)C(=N)N1CCc1ccc(-c2ccccc2)cc1 ?
Key: 1

Exercise: Would you mind telling me which call this test gave CCCCCCCN1C(=N)N(CCCC[C@H]2CNC(=N)N2CCC23CC4CC(CC(C4)C2)C3)C[C@@H]1CC1CCCCC1 ?
Key: 1

Exercise: Would you mind telling me which call this test gave CCCCCCCN1C(=N)N(CCCC[C@H]2CNC(=N)N2CCC23CC4CC(CC(C4)C2)C3)C[C@H]1Cc1cccc2ccccc12 ?
Key: 1
